B1: F1*; the commonest letter at each place (parent)
chain: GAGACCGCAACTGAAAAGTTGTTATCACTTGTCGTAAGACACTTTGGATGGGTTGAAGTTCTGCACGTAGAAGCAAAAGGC

variants of: B1; assay: fraction ligated after 30 min (ligated reads / total reads); higher = more ligase activity; settings: with F1*sub RNA substrate (template-directed ligation), 42 °C
Recorded fraction ligated, one value per entry.
Lab note: record the figure alone, no unit after it.

INSERT INTO measurements (sequence_record, reported_value) VALUES
  ('GAGACCGCAACTGAAAAGTTGTTATCTCTTGTCGGAAGACACTTTGGATGGGTTGAAGTTCTGCACGTAGAAGCAAAAGGC [A27T T35G]', 0.804),
  ('GAGACCGCAACTGAAAAGTTGTTATCACTTGTCTTAAGACACTTTGGAAGGGTTGAAGTTCTGCACGTAGAAGCAAAAGGC [G34T T49A]', 0.756);

Annotate the variant GAGACCGCAACTGAAAAGTTGTTATCACTTTACGTAAGACACTTTGGATGGGTTGAAGTTCTGCACGTAGAAGCAAAAGGC [G31T T32A] with its measured fraction ligated.
0.835

Annotate the variant GAGACCGCAACTGAAAAGTTGTTATCACTTGTCGTAAGACATTTTGAATGGGTTGAAGTTCTGCACGTAGAAGCAAAAGGC [C42T G47A] with its measured fraction ligated.
0.823

Annotate the variant GAGACCGCAACTGAAAAGTTGTTATCACTTGTCGTAAGACACTTTGGTTGGGTTGATGTTCTGCACGTAGAAGCAAAAGGC [A48T A57T] with its measured fraction ligated.
0.546
